For reference, the following pKi results for Cannabinoid receptor 1 (Rattus norvegicus) were taken from various sources.
Reminder that pKi is minus the log10 of a molar concentration.

Recorded pKi, per entry:
* Cc1c(C(=O)NN2CCCCC2)nn(-c2ccc(Cl)cc2F)c1-c1ccc(C2CC2)cc1 | 7.85
* Cc1c(C(=O)NN2CCOCC2)nn(-c2ccc(Cl)cc2Cl)c1-c1ccc(I)cc1 | 8.35
* Cc1c(C(=O)NN2CCCCC2)nn(-c2ccc(Cl)cc2)c1-c1ccc(C2CC2)cc1 | 7.10

Exercise: Identify the measured pKi of Cc1c(-c2ncn(C(C)C)c2CO)nn(-c2ccc(Cl)cc2Cl)c1-c1ccc(Cl)cc1 for Cannabinoid receptor 1 (Rattus norvegicus).
Key: 7.72

Exercise: Form field: pKi recorded for Cc1c(C(=O)Nc2ccccc2)nn(-c2ccc(Cl)cc2Cl)c1-c1ccc(Br)cc1 with Cannabinoid receptor 1 (Rattus norvegicus) (enter value)
Key: 7.51

Exercise: Request - read-out pKi | tested on Cannabinoid receptor 1 (Rattus norvegicus) | molecule CCCCN(CC(=O)N1c2ccccc2-n2cccc2C1c1ccc(OC)cc1)C(=O)CC(C)C (stereo not given)
Key: 6.63

Exercise: # query: pKi | item CCCCN(CC(=O)N1c2ccccc2-n2cccc2C1c1ccc(OC)cc1)C(=O)COC (stereo not given) | system: Cannabinoid receptor 1 (Rattus norvegicus)
Key: 6.34

Exercise: Cannabinoid receptor 1 (Rattus norvegicus) / pKi / CN1CCN(c2ncnc3c2nc(-c2ccccc2Cl)n3-c2ccc(Cl)cc2)CC1 : value?
Key: 7.62

----------
Let's look at some Ki data for Cannabinoid receptor 1 (Rattus norvegicus, UniProt P20272) that I collected from the literature.
Provide the reading as a plain figure in nM.

Guide cases for Ki, answers given:
* Cc1c(-c2ncc(C(C)C)[nH]2)nn(-c2ccc(Cl)cc2Cl)c1-c1ccc(Cl)cc1 | 9.5
* Cc1c(-c2cn(C3CCC3)cn2)nn(-c2ccc(Cl)cc2Cl)c1-c1ccc(Cl)cc1 | 10
* CCCCN(CC(=O)N1c2ccccc2-n2cccc2C1c1ccc(OC)cc1)C(=O)C1CCCC1 (centres undefined) | 602
* Cc1c(C(=O)NN2CCOCC2)nn(-c2ccc(Cl)cc2Cl)c1-c1ccc(Br)cc1 | 53.9
* Cc1c(-c2cn(C(C)(C)c3ccccc3)cn2)nn(-c2ccc(Cl)cc2Cl)c1-c1ccc(Cl)cc1 | 1.8

Exercise: Field: Ki (Cannabinoid receptor 1 (Rattus norvegicus, UniProt P20272)). Entry: Cc1c(C(=O)NN2CCCCC2)nn(-c2ccc(F)cc2)c1-c1ccc(C2CC2)cc1
Key: 190

Exercise: Give Cannabinoid receptor 1 (Rattus norvegicus, UniProt P20272) Ki for O=C1N2CCCSC2=NC1(c1ccccc1)c1ccccc1
Key: 7680

Exercise: What reported Ki corresponds to Cc1c(C(=O)NN2CCCCC2)nn(-c2ccc(N)cc2)c1-c1ccc(Cl)cc1 on Cannabinoid receptor 1 (Rattus norvegicus, UniProt P20272)?
Key: 72

Exercise: Which measured Ki belongs to CC(C)C(=O)NC1CCN(c2cnc(-c3ccc(C(F)(F)F)cc3)c(-c3ccncc3Cl)n2)CC1 , tested on Cannabinoid receptor 1 (Rattus norvegicus, UniProt P20272)?
Key: 0.41

----------
A compilation of published Ki results with Cannabinoid receptor 1 (Rattus norvegicus, UniProt P20272).
Sequence (P20272 whole entry): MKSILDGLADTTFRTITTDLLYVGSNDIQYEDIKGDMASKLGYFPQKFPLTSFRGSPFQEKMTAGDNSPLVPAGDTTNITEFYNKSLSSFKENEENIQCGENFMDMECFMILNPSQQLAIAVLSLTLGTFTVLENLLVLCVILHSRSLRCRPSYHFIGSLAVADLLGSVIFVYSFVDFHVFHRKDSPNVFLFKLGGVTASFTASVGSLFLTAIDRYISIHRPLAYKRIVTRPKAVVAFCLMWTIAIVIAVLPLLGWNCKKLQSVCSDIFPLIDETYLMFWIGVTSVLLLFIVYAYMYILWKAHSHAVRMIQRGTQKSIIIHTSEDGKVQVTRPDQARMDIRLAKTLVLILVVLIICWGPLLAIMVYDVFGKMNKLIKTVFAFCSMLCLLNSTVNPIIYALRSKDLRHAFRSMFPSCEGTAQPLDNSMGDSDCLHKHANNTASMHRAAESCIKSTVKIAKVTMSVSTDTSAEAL
Checkbox rule: Ki lower than 100 nM = fulfilled; Ki not lower than 100 nM = not fulfilled.

As a guide, the following entries are already answered.
- O=C1/C(=C/c2cccc(OCc3ccc(Cl)cc3Cl)c2)N=C2SCCCCN12: not fulfilled
- O=C1N=C2SCCCCN2C1(c1ccccc1)c1ccccc1: not fulfilled
- Cc1c(C(=O)NN2CCCC2)nn(-c2ccccc2)c1-c1ccc(C2CC2)cc1: not fulfilled

Exercise: # TODO verify Ki < 100 nM strictly for this compound: Cc1c(COCCN2CCCCC2)nn(-c2ccc(Cl)cc2Cl)c1-c1ccc(Cl)cc1
Key: not fulfilled

Exercise: In plain terms, does CCCCN(CC(=O)N1c2ccccc2-n2cccc2C1c1ccc(OC)cc1)C(=O)c1ccccc1C (stereo not given) come in under 100 nM for Ki?
Key: not fulfilled

Exercise: Does this compound meet the criterion Ki < 100 nM? COc1cc(C)cc2oc(=O)c(Cc3ccccc3Cl)cc12
Key: not fulfilled

Exercise: Does the reported Ki of the following compound sit strictly below 100 nM? Cc1c(C(=O)N2CCCCC2)nn(-c2ccc(Cl)cc2Cl)c1-c1ccc(Br)cc1
Key: not fulfilled

Exercise: is_below(Ki, 100 nM) for Cc1c(-c2cn(C3CCCCC3)cn2)nn(-c2ccc(Cl)cc2Cl)c1-c1ccc(Cl)cc1 ?
Key: fulfilled

Exercise: Ki under 100 nM? Item: COc1ccc(-c2c(C)c(C(=O)NN3CCCCC3)nn2-c2ccccc2Cl)cc1
Key: fulfilled

Exercise: Strictly below 100 nM: is that where Ki of CC(C)C[C@@H](CO)NC(=O)c1cnc(-c2ccc(Cl)cc2)c(-c2ccc(Cl)cc2)n1 sits?
Key: fulfilled
